Cited source for all entries: a melting point compilation (Tetko et al.; mined from patent text by program, amines drawn as free bases though some values may be those of a salt)

PARAMETER_MEASURED: melting point

>  <COMPOUND>
CS(=O)c1ccc(CCCCl)cc1 (stereo not given)

>  <melting point>
46 °C

$$$$
>  <COMPOUND>
CCOC(=O)C1CCN(c2nc(-c3ccc(Cl)cc3)c(CCCOc3ccccc3OC)o2)CC1

>  <melting point>
80 to 81 °C

$$$$
>  <COMPOUND>
Cc1nc(Nc2ccccc2)sc1-c1ccc(Cl)c([N+](=O)[O-])c1

>  <melting point>
162 to 165 °C

$$$$
>  <COMPOUND>
COC(=O)c1cccc(-c2cccc(Oc3ccc(Cl)cc3Cl)n2)c1

>  <melting point>
112 to 113 °C

$$$$

Consider the additional compound presented here.
melting point reading for Cc1cccc(C(=O)NN(C(=O)c2ccccc2)C(C)(C)C)c1 : 111 to 114 °C

* * *

PARAMETER_MEASURED: melting point (°C)

>  <MOLECULE>
CCCCNC(=O)c1cccc(S(=O)(=O)NC(=O)c2ccc(C(=O)NCC(=O)O)nc2)c1

>  <PARAMETER_MEASURED>
melting point

>  <NUMBER>
220

$$$$

(1) CCCC1(C)C(=O)NC(=O)N1c1ccc(C)cc1 (centres undefined)
(2) CNC(=O)[C@@H]1CCCN1S(=O)(=O)c1ccc(Cl)c(COc2cccc3c(-n4ccnc4)cc(C)nc23)c1Cl
# argmax over melting point for candidates 1 and 2 Identify your selection by its label.
1
(1: 158 °C, 2: 90 °C)

* * *

PARAMETER_MEASURED: melting point

>  <COMPOUND>
COC(=O)c1ccc(CC23CCCN2C(=O)N(c2cc(Cl)c(O)c(Cl)c2)C3=O)cc1 (stereo unspecified)

>  <melting point>
105 °C

$$$$
>  <COMPOUND>
CCCCC(=O)N(CCOCc1ccccc1)Cc1ccc(-c2ccccc2-c2nnn[nH]2)cc1

>  <melting point>
109 to 110 °C

$$$$
>  <COMPOUND>
Cc1cc(N2CNC(=O)C23CCN(CCCn2c(=O)[nH]c4ccccc42)CC3)ccc1Cl

>  <melting point>
209 °C

$$$$
>  <COMPOUND>
O=C(NC(=O)c1c(F)cccc1F)Nc1cc(Br)c(F)c(Cl)c1F

>  <melting point>
225 to 227 °C

$$$$
>  <COMPOUND>
O=C1c2cc(O)ccc2OCN1CCO[N+](=O)[O-]

>  <melting point>
80 °C

$$$$

melting point reading for [N-]=[N+]=C1CCCCCCCCCCC1=O : 43 to 44 °C

melting point reading for O=C(O)CCc1ccc(C(=O)CN2CCN(c3ccncc3)CC2)cc1 : 245 to 247 °C

melting point reading for CCCNc1ncc2c(=O)[nH]c(-c3ccccc3OCCC)nc2n1 : 185 to 187 °C

melting point reading for CCC[C@@H](CC1(C(=O)Nc2nnc(CC)s2)CCCC1)C(=O)O : 130 to 136 °C

melting point reading for CCOCCN(C)c1ccc(-c2ccc3c(c2)C=C(C(=O)Nc2ccc(CN(C)C4CCOCC4)cc2)CCS3(=O)=O)cc1 : 190 to 192 °C

melting point reading for CC1(C)O[C@@]23CC(=O)CC[C@@]2(C)CC[C@@H]1C3 : 60 to 61 °C

* * *

PARAMETER_MEASURED: melting point

>  <CHEMICAL_STRING>
CCCCCCCCC(CO)CO

>  <melting point>
48 to 51 °C

$$$$
>  <CHEMICAL_STRING>
COc1ccc(Nc2cccc(Cl)n2)cc1

>  <melting point>
74 to 76 °C

$$$$

Consider the additional compound presented here.
melting point reading for CC1=C(c2ccncc2)SCC(=O)N1C : 139 to 140 °C
